- System Tested: Mre11^HLH-Rad50^NBD (Pyrococcus furiosus, UniProt P58301, DEL196-708)
- Construct: Mre11 helix-loop-helix aa344-426; His and NusA-His tags removed with TEV; E. coli; monomeric without nucleotide; with DNA double-strand break repair protein Mre11
- Sequence (P58301 709-882, stated change not applied, other chains not shown): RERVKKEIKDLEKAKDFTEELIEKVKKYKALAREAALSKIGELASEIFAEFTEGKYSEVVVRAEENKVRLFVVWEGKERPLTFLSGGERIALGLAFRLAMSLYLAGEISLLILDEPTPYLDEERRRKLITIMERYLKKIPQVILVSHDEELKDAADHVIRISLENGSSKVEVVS
- Sequence (P58301 1-195, stated change not applied, other chains not shown): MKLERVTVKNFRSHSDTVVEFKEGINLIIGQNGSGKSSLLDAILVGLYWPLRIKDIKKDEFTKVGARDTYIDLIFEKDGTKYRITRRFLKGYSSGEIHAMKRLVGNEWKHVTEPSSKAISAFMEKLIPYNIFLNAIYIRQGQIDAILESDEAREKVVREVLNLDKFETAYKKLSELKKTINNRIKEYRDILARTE
- Method: fluorescence polarization competition with BODIPY FL ATP
- Format: binding
- Condition Parameters: read-out: KI,ADP
Recorded Endpoint: Ki (µM)
Reply numerically in µM, unit not repeated.

Sample Nc1ncnc2c1ncn2[C@@H]1O[C@H](COP(=O)(O)OP(=O)(O)O)[C@@H](O)[C@H]1O ; Ki observed: 6.5

* * *

- System Tested: Mre11^HLH-Rad50^NBD (Pyrococcus furiosus, UniProt P58301, DEL196-708/R805E)
- Construct: Mre11 helix-loop-helix aa344-426; His and NusA-His tags removed with TEV; E. coli; monomeric without nucleotide; with DNA double-strand break repair protein Mre11
- Sequence (P58301 709-882 R805E, other chains not shown): as the sequence (P58301 709-882, stated change not applied, other chains not shown) above, with R97E counted along it
- Sequence (P58301 1-195, stated change not applied, other chains not shown): as the sequence (P58301 1-195, stated change not applied, other chains not shown) above
- Method: fluorescence polarization competition with BODIPY FL ATP
Recorded Endpoint: Ki (µM)
Reply numerically in µM, unit not repeated.

Sample Nc1ncnc2c1ncn2[C@@H]1O[C@H](COP(=O)(O)OP(=O)(O)OP(=O)(O)O)[C@@H](O)[C@H]1O [ATP] ; Ki observed: 3
